test: Micafungin concentrations in cerebrospinal fluid of infants with Candida meningitis (HPLC); assay type: in vivo; conditions: human, cerebrospinal fluid, iv, 10 mg/kg/day, Patient 2, dose 10 mg/kg/day iv; HPLC; read-out: CSF values after 8 h
*1 amine or outer side, *2 acyl side, *3 side chain or, on linkers, in order; H or OH if unused. Where a SMILES comes first, the peptide text is derived from it. Bridges are numbered along the chain shown (N, C = ends). [ ]: non-standard residue; d: D form. The star is where a group is joined. hTyr(3S-OH,4S-OH,3'-OSO3H) = N[C@H](C(=O)O)[C@H](O)[C@@H](O)c1ccc(O)c(OS(=O)(=O)O)c1; Orn(4R-OH,5R-OH) = O=C([C@H](C[C@@H](O)[C@@H](O)N[*:3])N[*:1])[*:2]; Pro(3S-OH,4S-Me) = C[C@H]1CN[C@H](C(=O)O)[C@H]1O; X1 = CCCCCOc1ccc(-c2cc(-c3ccc(C(=O)*)cc3)no2)cc1; Gln(3R-OH) = NC(=O)C[C@@H](O)[C@H](N)C(=O)O; Hyp = O=C(O)[C@@H]1C[C@@H](O)CN1

COMPOUND	level at 8 h (ng/mL)
CCCCCOc1ccc(-c2cc(-c3ccc(C(=O)N[C@H]4C[C@@H](O)[C@@H](O)NC(=O)[C@@H]5[C@@H](O)[C@@H](C)CN5C(=O)[C@H]([C@H](O)CC(N)=O)NC(=O)[C@H]([C@H](O)[C@@H](O)c5ccc(O)c(OS(=O)(=O)O)c5)NC(=O)[C@@H]5C[C@@H](O)CN5C(=O)[C@H]([C@@H](C)O)NC4=O)cc3)no2)cc1 [micafungin] (X1-[Orn(4R-OH,5R-OH)]T[Hyp][hTyr(3S-OH,4S-OH,3'-OSO3H)][Gln(3R-OH)][Pro(3S-OH,4S-Me)]; lactam 1-C)	300

----------
experiment: Micafungin concentrations in cerebrospinal fluid of infants with Candida meningitis (HPLC); format: in vivo; settings: human, cerebrospinal fluid, iv, 7 mg/kg/day, Patient 1, dose 7 mg/kg/day iv; HPLC; read-out: CSF values after 1 h
*1 amine or outer side, *2 acyl side, *3 side chain or, on linkers, in order; H or OH if unused. Where a SMILES comes first, the peptide text is derived from it. Bridges are numbered along the chain shown (N, C = ends). [ ]: non-standard residue; d: D form. The star is where a group is joined. hTyr(3S-OH,4S-OH,3'-OSO3H) = N[C@H](C(=O)O)[C@H](O)[C@@H](O)c1ccc(O)c(OS(=O)(=O)O)c1; Orn(4R-OH,5R-OH) = O=C([C@H](C[C@@H](O)[C@@H](O)N[*:3])N[*:1])[*:2]; Pro(3S-OH,4S-Me) = C[C@H]1CN[C@H](C(=O)O)[C@H]1O; X1 = CCCCCOc1ccc(-c2cc(-c3ccc(C(=O)*)cc3)no2)cc1; Gln(3R-OH) = NC(=O)C[C@@H](O)[C@H](N)C(=O)O; Hyp = O=C(O)[C@@H]1C[C@@H](O)CN1

COMPOUND	level at 1 h, ng/mL
CCCCCOc1ccc(-c2cc(-c3ccc(C(=O)N[C@H]4C[C@@H](O)[C@@H](O)NC(=O)[C@@H]5[C@@H](O)[C@@H](C)CN5C(=O)[C@H]([C@H](O)CC(N)=O)NC(=O)[C@H]([C@H](O)[C@@H](O)c5ccc(O)c(OS(=O)(=O)O)c5)NC(=O)[C@@H]5C[C@@H](O)CN5C(=O)[C@H]([C@@H](C)O)NC4=O)cc3)no2)cc1 [micafungin] (X1-[Orn(4R-OH,5R-OH)]T[Hyp][hTyr(3S-OH,4S-OH,3'-OSO3H)][Gln(3R-OH)][Pro(3S-OH,4S-Me)]; lactam 1-C)	150

From: paper PMC10051811
